src = patent US8716473B2

Listed compounds paired with reported IC50
System: MCF-7 cells
Assay: MCF-7 proliferation assay (Alamar blue)
Assay type: cell-based
Settings: Homo sapiens, MCF7, 72 h incubation, read-out: IC50 for inhibition of cell growth
Where a name gives a salt, the structure may show the parent alone.

| COMPOUND | IC50 |
| --- | --- |
| CN(C)CCOc1cccc(CNc2cnc3cc(-c4cn[nH]c4)ccc3n2)c1 [Example 31, hydrochloride] | < 20 µM |
| C[C@@H](Nc1cnc2cc(-c3cn[nH]c3)ccc2n1)c1ccccc1 [Example 33] | < 20 µM |
| c1ccc(CCNc2cnc3cc(-c4cn[nH]c4)ccc3n2)cc1 [Example 25, hydrochloride] | < 20 µM |
| COc1ccc(CNc2cnc3cc(-c4cn[nH]c4)ccc3n2)cc1 [Example 17] | < 10 µM |
| CN(Cc1ccccc1)c1cnc2cc(-c3cn[nH]c3)ccc2n1 [Example 2, hydrochloride] | < 20 µM |
| c1cc(CNc2cnc3cc(-c4cn[nH]c4)ccc3n2)cc(N2CCOCC2)c1 [Example 7, hydrochloride] | < 20 µM |
| Fc1cccc(CNc2cnc3cc(-c4cn[nH]c4)ccc3n2)c1 [Example 12, hydrochloride] | < 10 µM |
| OCCN(Cc1ccccc1)c1cnc2cc(-c3cn[nH]c3)ccc2n1 [Example 3] | < 20 µM |
| CN1CCN(c2cccc(CNc3cnc4cc(-c5cn[nH]c5)ccc4n3)c2)CC1 [Example 6, hydrochloride] | < 20 µM |
| CN(Cc1ccc(F)cc1)c1cnc2cc(-c3cn[nH]c3)ccc2n1 [Example 21] | < 50 µM |
| Clc1cccc(CNc2cnc3cc(-c4cn[nH]c4)ccc3n2)c1 [Example 9] | < 20 µM |
| CN(Cc1cccc(F)c1)c1cnc2cc(-c3cn[nH]c3)ccc2n1 [Example 28] | < 10 µM |
| Fc1ccccc1CNc1cnc2cc(-c3cn[nH]c3)ccc2n1 [Example 13, hydrochloride] | < 20 µM |
| Fc1ccc(CNc2cnc3cc(-c4cn[nH]c4)ccc3n2)cc1 [Example 11, hydrochloride] | < 10 µM |
| Clc1ccc(CNc2cnc3cc(-c4cn[nH]c4)ccc3n2)cc1 [Example 8] | < 20 µM |
| COc1cccc(CNc2cnc3cc(-c4cn[nH]c4)ccc3n2)c1 [Example 18] | < 10 µM |
| CCN(Cc1ccccc1)c1cnc2cc(-c3cn[nH]c3)ccc2n1 [Example 26] | < 50 µM |
| Fc1ccc(CNc2cnc3cc(-c4cn[nH]c4)ccc3n2)cc1F [Example 32] | < 50 µM |
| COc1cccc(CN(C)c2cnc3cc(-c4cn[nH]c4)ccc3n2)c1 [Example 27] | < 50 µM |
| COc1cccc([C@@H](C)Nc2cnc3cc(-c4cn[nH]c4)ccc3n2)c1 [Example 50, hydrochloride] | < 10 µM |
| c1ccc(CNc2cnc3cc(-c4cn[nH]c4)ccc3n2)cc1 [Example 1] | < 10 µM |
| c1cc(CNc2cnc3cc(-c4cn[nH]c4)ccc3n2)cs1 [Example 38] | < 10 µM |
| Cc1cccc(CNc2cnc3cc(-c4cn[nH]c4)ccc3n2)c1 [Example 41] | < 10 µM |

* * *

Where a name gives a salt, the structure may show the parent alone.
Parameter 'readout' = IC50; parameter 'system' = p70S6K (h) (Homo sapiens, UniProt P23443).
Sequence (P23443 whole entry): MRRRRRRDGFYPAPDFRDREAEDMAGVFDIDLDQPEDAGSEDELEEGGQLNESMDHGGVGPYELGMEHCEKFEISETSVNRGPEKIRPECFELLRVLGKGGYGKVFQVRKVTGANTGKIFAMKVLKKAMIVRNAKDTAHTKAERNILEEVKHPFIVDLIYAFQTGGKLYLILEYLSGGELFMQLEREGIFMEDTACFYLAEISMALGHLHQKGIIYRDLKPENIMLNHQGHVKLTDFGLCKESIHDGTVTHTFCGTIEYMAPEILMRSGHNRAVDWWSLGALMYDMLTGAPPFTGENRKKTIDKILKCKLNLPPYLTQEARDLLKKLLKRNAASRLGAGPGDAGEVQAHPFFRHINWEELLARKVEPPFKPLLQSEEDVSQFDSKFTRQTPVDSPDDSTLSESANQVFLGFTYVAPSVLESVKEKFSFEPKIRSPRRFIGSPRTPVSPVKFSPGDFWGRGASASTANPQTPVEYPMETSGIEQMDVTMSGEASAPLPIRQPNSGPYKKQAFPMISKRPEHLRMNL
QUANTITY: IC50

| COMPOUND | READOUT VALUE |
| --- | --- |
| Clc1ccccc1CNc1cnc2cc(-c3cn[nH]c3)ccc2n1 | < 1000 nM |
| CN1CCN(c2cccc(CNc3cnc4cc(-c5cn[nH]c5)ccc4n3)c2)CC1 [Example 6, hydrochloride] | < 1000 nM |
| Cc1ccc(CNc2cnc3cc(-c4cn[nH]c4)ccc3n2)cc1 | < 100 nM |
| c1cc(CNc2cnc3cc(-c4cn[nH]c4)ccc3n2)cs1 | < 100 nM |
| Fc1cccc(CNc2cnc3cc(-c4cn[nH]c4)ccc3n2)c1 [Example 12, hydrochloride] | < 100 nM |
| CN(Cc1ccccc1)c1cnc2cc(-c3ccncn3)ccc2n1 | < 1000 nM |
| c1ccc(CNc2cnc3cc(-c4cn[nH]c4)ccc3n2)nc1 [Example 16, hydrochloride] | < 5000 nM |
| c1ccc(CCNc2cnc3cc(-c4cn[nH]c4)ccc3n2)cc1 [Example 25, hydrochloride] | < 100 nM |
| FC(F)(F)c1ccc(CNc2cnc3cc(-c4cn[nH]c4)ccc3n2)cc1 | < 1000 nM |
| c1cncc(CNc2cnc3cc(-c4cn[nH]c4)ccc3n2)c1 [Example 15, hydrochloride] | < 1000 nM |
| C[C@@H](c1cccc(F)c1)N(C)c1cnc2cc(-c3cn[nH]c3)ccc2n1 | < 1000 nM |
| Cc1cccc(CNc2cnc3cc(-c4cn[nH]c4)ccc3n2)c1 | < 100 nM |
| C[C@H](Nc1cnc2cc(-c3cn[nH]c3)ccc2n1)c1cccc(F)c1 [Example 59, hydrochloride] | < 5000 nM |
| COc1cccc([C@@H](C)Nc2cnc3cc(-c4cn[nH]c4)ccc3n2)c1 [Example 50, hydrochloride] | < 100 nM |
| CN(C)CCOc1cccc(CNc2cnc3cc(-c4cn[nH]c4)ccc3n2)c1 [Example 31, hydrochloride] | < 5000 nM |
| CCN(Cc1ccccc1)c1cnc2cc(-c3cn[nH]c3)ccc2n1 | < 100 nM |
| [O-][n+]1nc(NCc2ccccc2)nc2ccc(-c3cn[nH]c3)cc21 | < 1000 nM |
| COc1ccccc1CNc1cnc2cc(-c3cn[nH]c3)ccc2n1 | < 1000 nM |
| Fc1ccccc1CNc1cnc2cc(-c3cn[nH]c3)ccc2n1 [Example 13, hydrochloride] | < 1000 nM |
| Fc1ccc(CNc2cnc3cc(-c4cn[nH]c4)ccc3n2)cc1 [Example 11, hydrochloride] | < 100 nM |
